B1: Hairpin Ribozyme (parent)
chain: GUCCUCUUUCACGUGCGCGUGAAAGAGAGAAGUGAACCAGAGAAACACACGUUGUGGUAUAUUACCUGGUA

- Variants of: B1
- TEST_METHOD_NOTES: self-cleavage, relative activity (ratio to wild type); higher = more cleavage; co-transcriptional
PROPERTY_NAME: self-cleavage
No unit in the answer, only the number.

// worked examples, self-cleavage included
INPUT: Name the recorded self-cleavage for GUCCUCUUUCACGUGCGCGUGAAAGGGAGAACUGAACCAGAGAAACACACGUUGUGGUAUAUUACCUGGUA [A26G G32C] .
OUTPUT: 0.144

INPUT: # self-cleavage lookup, item GUCCUCUUUCACGUGCGCGUGAAAGAGAGAAGUGAACCAGAGAAACAGACGUUGUGGUAUAUUACCUGGCA [C48G U70C]
OUTPUT: 0.302

INPUT: If you can, please state the reported self-cleavage value of GUUCUCUUUCACGUCCGCGUGAAAGAGAGAAGUGAACCAGAGAAACACACGUUGUGGUAUAUUACCUGGUA [C3U G15C] .
OUTPUT: 0.727

INPUT: Looking for the measured self-cleavage of GUCCUCUUUCACGUGCUCGUGAAAGAGAGAAGUGAACCAGAGAAACACACGUUGUGGUCUAUUACCUGGUA [G17U A59C] , can you help?
OUTPUT: 0.0796

INPUT: So what's the measured self-cleavage for this one? GUCCUCUUUCACGUGCGCGUGAAAGAGAGAAGUGAACCAGAGAAACACACUUUGUGGUAUAUUACCUGGUC [G51U A71C]
OUTPUT: 1.46

INPUT: So what does the record say about self-cleavage for GUCCUCUUUUACGUGCGCGUGAAAGAGAGAAGUGAACCAGAGAAACAGACGUUGUGGUAUAUUACCUGGUA [C10U C48G] ?
OUTPUT: 0.134

INPUT: Look at this variant and give its reported self-cleavage. GUCCUCUUUCACGUGCGCGUGAAAGAGAGUAGUGAACCAGAGAAACACACGUUGUGGUAUAUUACCUUGUA [A30U G68U]
OUTPUT: 0.207

INPUT: For GUCCUCUUUCACGUGCGCGUGAAAAAGAGAAGUGAACCAGAGAAACACACGUUGUGGUAUAUUACCUGGUU [G25A A71U] , what is its reported self-cleavage?
OUTPUT: 0.553

INPUT: I have this variant here, GUCCUCUUUCACGUGCGCGUGAAAGAGAGAAGUGAACCAGAGGAACACACGUUGUGGUAUAUUACCUGGUG [A43G A71G] , and I need its recorded self-cleavage.
OUTPUT: 0.165

INPUT: Recorded self-cleavage for GUCCUCUUUCACGUGCGCGUGAAAGAGAAAAGUGAACCAGAGAAACACACGUUGUGGCAUAUUACCUGGUA [G29A U58C] , please?
OUTPUT: 0.202

---
INPUT: Need self-cleavage, item GUGCUCUUUCACGUGCGCGUGAAAGAGAGAAGUGAACGAGAGAAACACACGUUGUGGUAUAUUACCUGGUA [C3G C38G]
OUTPUT: 0.0857

INPUT: Please look up its self-cleavage: GUCCUCUUUCACGUGCGCGUGAAACACAGAAGUGAACCAGAGAAACACACGUUGUGGUAUAUUACCUGGUA [G25C G27C]
OUTPUT: 0.171

INPUT: What does the record list as self-cleavage for GUCCUCUUUCACGUGCGCGUGAAAGAGAGAAGUGAAGCAGAGAAACACACGUUGUUGUAUAUUACCUGGUA [C37G G56U] ?
OUTPUT: 0.0996
